Target: Corticotropin-releasing factor receptor 2/Corticotropin-releasing factor-binding protein (Homo sapiens, UniProt P24387+Q13324)
Sequence (Q13324 whole entry): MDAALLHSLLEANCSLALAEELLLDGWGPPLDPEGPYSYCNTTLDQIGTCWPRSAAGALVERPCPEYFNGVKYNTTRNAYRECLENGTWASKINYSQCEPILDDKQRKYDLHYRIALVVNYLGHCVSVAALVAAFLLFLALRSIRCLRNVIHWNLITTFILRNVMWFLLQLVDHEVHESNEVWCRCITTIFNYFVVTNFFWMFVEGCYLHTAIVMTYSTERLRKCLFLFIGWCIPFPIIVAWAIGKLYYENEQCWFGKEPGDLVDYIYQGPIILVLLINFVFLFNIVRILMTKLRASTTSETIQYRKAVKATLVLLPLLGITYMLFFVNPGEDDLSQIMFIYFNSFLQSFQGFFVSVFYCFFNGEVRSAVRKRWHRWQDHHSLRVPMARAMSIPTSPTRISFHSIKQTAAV
Sequence (P24387 whole entry): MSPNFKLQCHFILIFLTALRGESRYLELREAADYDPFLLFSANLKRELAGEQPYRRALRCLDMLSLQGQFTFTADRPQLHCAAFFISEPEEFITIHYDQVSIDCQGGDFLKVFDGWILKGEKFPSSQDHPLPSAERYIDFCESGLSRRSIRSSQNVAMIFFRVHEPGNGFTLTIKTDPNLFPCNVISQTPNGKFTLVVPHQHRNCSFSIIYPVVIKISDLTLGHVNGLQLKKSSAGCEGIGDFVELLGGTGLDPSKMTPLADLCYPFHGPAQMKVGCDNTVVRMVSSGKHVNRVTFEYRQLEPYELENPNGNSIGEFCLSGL
Experiment: activators of CRF receptor 2 with binding protein – uHTS hits, confirmation (AID 602473)
Format: functional
Details: read-out: EC50_Mean
Calls of active or inactive are those of the source.
Outcome codes: active, inactive

Compound | Group Label
O=C(CNC(=O)C1CCCCC1)Nc1ccc(F)c(Cl)c1 | inactive
CC(C)(C)C(=O)Nc1sc2c(c1C#N)CCN(Cc1ccccc1)C2 | active
Cc1ccc(-c2csc(Nc3ccc(C(=O)O)cc3)[n+]2Cc2ccccc2)cc1 | inactive
O=C(Nc1ccccc1Oc1cccnc1)C1CCCN(Cc2ccccc2O)C1 (stereo unspecified) | inactive
CC1CN(C(=O)c2ccc(NS(=O)(=O)c3ccc(C(C)(C)C)cc3)cc2)CC(C)O1 (stereo unspecified) | active
CC(C)C[C@H]1CN=C(Nc2ccccc2)N1CCc1cccc(F)c1 | active

###

Catalogue of IC50 values
Target: Caspase-3 (Homo sapiens, UniProt P42574)
Sequence (P42574 29-175 limits assumed): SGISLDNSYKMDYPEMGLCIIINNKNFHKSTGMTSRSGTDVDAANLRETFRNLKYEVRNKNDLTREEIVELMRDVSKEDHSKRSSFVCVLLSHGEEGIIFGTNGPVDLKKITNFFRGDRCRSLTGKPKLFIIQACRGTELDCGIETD
Sequence (P42574 176-277 limits assumed): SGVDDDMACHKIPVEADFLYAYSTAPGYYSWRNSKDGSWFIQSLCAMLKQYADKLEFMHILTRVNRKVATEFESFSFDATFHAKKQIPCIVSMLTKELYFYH
Experiment: SAR Analysis of small molecule inhibitors of Sentrin-specific proteases (SENPs) using a Caspase-3 Selectivity assay. [Related pubchem assays (depositor defined):AID2540, AID2599, AID434973, AID489001]
Format: functional
Active and inactive are the calls of the source.

Structure | System Tested | IC50
Cc1cc(NC(=O)COC(=O)CNC(=O)c2sc3ccccc3c2Cl)no1 | Caspase-3 (Homo sapiens, UniProt P42574) | > 99 µM (inactive)
COc1ccc2nc(NC(=O)c3ccc4c(c3)OCCO4)sc2c1 | Caspase-3 (Homo sapiens, UniProt P42574) | > 99 µM (inactive)
Cc1csc(C(=O)Nc2nc3ccc(Cl)cc3s2)c1 | Caspase-3 (Homo sapiens, UniProt P42574) | 36 µM (active)
Oc1ccccc1-c1nc(/C=C/c2ccc(F)cc2)no1 | Caspase-3 (Homo sapiens, UniProt P42574) | 5.5 µM (active)

###

Target: Cytochrome P450 2D6 (Homo sapiens);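 also: CYP2D6 member of a cytochrome P450 panel assay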
Sequence (P10635 whole entry): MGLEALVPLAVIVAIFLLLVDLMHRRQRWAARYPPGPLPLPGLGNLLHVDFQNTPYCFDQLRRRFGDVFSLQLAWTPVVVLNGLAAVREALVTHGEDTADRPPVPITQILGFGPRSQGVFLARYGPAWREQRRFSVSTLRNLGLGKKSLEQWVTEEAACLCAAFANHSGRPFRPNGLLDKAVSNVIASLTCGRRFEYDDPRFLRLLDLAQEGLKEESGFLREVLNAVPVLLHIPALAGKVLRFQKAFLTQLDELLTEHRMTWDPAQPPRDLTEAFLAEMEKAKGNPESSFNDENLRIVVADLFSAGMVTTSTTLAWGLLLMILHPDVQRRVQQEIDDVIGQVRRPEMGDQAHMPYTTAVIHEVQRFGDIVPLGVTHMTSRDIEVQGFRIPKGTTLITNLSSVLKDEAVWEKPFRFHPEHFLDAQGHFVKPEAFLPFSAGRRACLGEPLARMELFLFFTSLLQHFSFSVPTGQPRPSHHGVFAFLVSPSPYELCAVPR

Compound | AC50
CC(=O)Oc1cc(C(C)C)c(OCCN(C)C)cc1C [MOXISYLYTE] | 10 µM (inconclusive)
CCOC(=O)c1c(-c2ccccc2)cn2ccccc12 | 3.16 µM (inconclusive)
Cc1ccc(SCc2ccc(C(=O)Nc3cc([N+](=O)[O-])ccc3C)cc2)cc1 | 3.16 µM (inconclusive)
CN(C)C(=O)c1ccc(-c2ccc3ncnc(NCc4cccs4)c3c2)cc1 | 20 µM (inconclusive)
Cc1ccccc1CSc1nccn1-c1ccccc1 | 17.8 µM (inconclusive)
CCOC(=O)C[n+]1c(C)sc2ccc(OC)cc21 | 12.6 µM (inconclusive)
CCn1c(SCc2nc3ccccc3[nH]2)nnc1-c1ccc(OC)cc1 | 20 µM (inconclusive)
COc1ccc(-c2n[nH]c(C)c2-c2ccc(Cl)cc2)c(O)c1 | 28.2 µM (inconclusive)

###

Catalogue of IC50 values
Target: Calpain-2 catalytic subunit (Sus scrofa, UniProt P43367)
Sequence (P43367 whole entry): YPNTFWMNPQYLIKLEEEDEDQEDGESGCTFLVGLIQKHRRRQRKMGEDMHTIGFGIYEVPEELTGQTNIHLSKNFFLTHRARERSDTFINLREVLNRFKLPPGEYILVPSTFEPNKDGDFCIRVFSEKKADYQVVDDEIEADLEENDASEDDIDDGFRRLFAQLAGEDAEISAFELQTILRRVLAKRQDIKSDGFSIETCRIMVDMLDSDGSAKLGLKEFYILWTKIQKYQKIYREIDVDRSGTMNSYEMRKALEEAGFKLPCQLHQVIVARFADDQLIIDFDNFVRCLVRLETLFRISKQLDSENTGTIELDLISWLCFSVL
Assay: m-calpain protease blockers, concentration series – biochemical, fluorogenic peptide substrate, dose response (AID 1420)
Assay type: functional

Compound | IC50
CC1CCN([S+]([O-])C23CC4CC(CC(C4)C2)C3)CC1 (configuration not stated) | > 50 µM (not active)
NS(=O)(=O)c1cccc(NC(=O)CN2CCC(Cc3ccccc3)CC2)c1 | 25.9 µM (not active)
Cc1cccc(-c2noc(CN(C(=O)/C=C/c3ccccc3Cl)C(C)C)n2)c1 | 13.3 µM (not active)
Cc1[nH]c2ccccc2c1CCN(Cc1cccnc1)C(S)=Nc1ccc(F)cc1 | > 50 µM (not active)
N#CC(c1ccncc1)(c1ncc(C(F)(F)F)cc1Cl)N1CCOCC1 (configuration not stated) | 19.2 µM (not active)
C=CCNc1ccc(N2C(=O)C3CCC(C)CC3C2=O)cc1[N+](=O)[O-] (configuration not stated) | 4.48 µM (not active)
CCOc1cc(CNc2ccc(O)cc2)ccc1OCc1ccc(Cl)cc1Cl | 7.31 µM (not active)

###

Target: UniProt:Q9BQF6
Sequence (Q9BQF6 whole entry): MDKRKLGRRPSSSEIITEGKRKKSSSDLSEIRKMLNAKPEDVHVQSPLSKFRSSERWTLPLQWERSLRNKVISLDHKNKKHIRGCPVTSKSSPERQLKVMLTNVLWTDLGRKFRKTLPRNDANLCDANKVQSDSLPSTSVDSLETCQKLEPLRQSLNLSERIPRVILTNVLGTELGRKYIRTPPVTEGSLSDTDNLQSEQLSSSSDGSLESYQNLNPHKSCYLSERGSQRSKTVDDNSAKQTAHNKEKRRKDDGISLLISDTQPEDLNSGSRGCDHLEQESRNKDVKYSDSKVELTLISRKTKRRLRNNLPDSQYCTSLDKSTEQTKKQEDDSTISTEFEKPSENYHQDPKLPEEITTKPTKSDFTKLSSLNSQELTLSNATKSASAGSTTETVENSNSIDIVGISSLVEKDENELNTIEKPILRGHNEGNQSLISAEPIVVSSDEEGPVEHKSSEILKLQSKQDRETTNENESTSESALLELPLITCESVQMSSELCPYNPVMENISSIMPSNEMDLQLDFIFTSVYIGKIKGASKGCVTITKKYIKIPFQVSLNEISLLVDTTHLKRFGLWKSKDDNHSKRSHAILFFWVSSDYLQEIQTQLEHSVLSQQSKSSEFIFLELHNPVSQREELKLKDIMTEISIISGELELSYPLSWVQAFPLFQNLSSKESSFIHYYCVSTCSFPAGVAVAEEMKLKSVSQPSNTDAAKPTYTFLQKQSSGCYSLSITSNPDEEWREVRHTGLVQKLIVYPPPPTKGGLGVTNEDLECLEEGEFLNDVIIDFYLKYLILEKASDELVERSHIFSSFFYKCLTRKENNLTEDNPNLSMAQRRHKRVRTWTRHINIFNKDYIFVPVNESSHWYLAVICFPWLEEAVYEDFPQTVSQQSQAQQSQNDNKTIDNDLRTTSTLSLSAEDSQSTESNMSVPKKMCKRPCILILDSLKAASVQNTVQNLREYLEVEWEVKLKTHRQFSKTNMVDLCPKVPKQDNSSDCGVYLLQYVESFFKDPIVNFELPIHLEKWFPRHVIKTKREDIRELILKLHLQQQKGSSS
Assay: inhibition of human SENP7 cleavage activity – biochemical, luminescence, SAR follow-up (AID 504497)
Type: functional
Active and inactive are the calls of the source.
Outcome codes: class 1 (active), class 0 (inactive)

Structure | System Tested | Group Label
Cc1cc(NC(=O)COC(=O)CNC(=O)c2sc3ccccc3c2Cl)no1 | UniProt:Q9BQF6 | class 0
COc1ccc2nc(NC(=O)c3ccc4c(c3)OCCO4)sc2c1 | UniProt:Q9BQF6 | class 0
Cc1csc(C(=O)Nc2nc3ccc(Cl)cc3s2)c1 | UniProt:Q9BQF6 | class 1
Oc1ccccc1-c1nc(/C=C/c2ccc(F)cc2)no1 | UniProt:Q9BQF6 | class 1
